- Test system: MS2 coat protein
- assay.comment: apparent Kd, MS2 coat protein; higher = weaker binding; RNA-MaP array; FMN 200 µM where present
- experimental.parameters: designed as: OFF switch for flavin mononucleotide; no ligand
endpoint: apparent Kd (nM)
Write the answer as a number in nM, unit excluded.

>>> df
                                   seq_text  unit_symbol  numeric_result
0  GUGGCUAGUGCAGGAUAUUAGUGCGUGUAGUAUUGAGAAGGGCACAUGAGGAUCACCCAUGUGAUCAAUCACUGUUAAGGUCGC           nM            79.7
1  GCACAUGAUACAGGAUAUGUUUUGGAUUUUAUAUUCAGUUAUAUAAUAUUUACAGAAGGGUAUACAUGAGGAUCACCCAUGUGC           nM            61.1
2  GCGUCAGAAUUAAUUGUGUCAUACAGAAGGCAAUAUUAAGGUUAAGACAUGAGGAUCACCCAUGUUGAGGAUAUGUAGUGACGC           nM            10.5

Recorded result, `UAUUUAAGAGGAUAUACAUGAGGAUCACCCAUGUGUGUCAAUACGCGUGAUUUUUCAUGUAGAAGGCUUGGGUA` , apparent Kd: 233

----------
- Test system: MS2 coat protein
- assay.comment: apparent Kd, MS2 coat protein; higher = weaker binding; RNA-MaP array; theophylline 2 mM where present
- experimental.parameters: ligand present: theophylline; designed as: ON switch for theophylline
Property: apparent Kd; scope: individual sequences
Enter your answer as a number in nM; do not include the unit.

>>> print(df.to_string())
                                   seq_text     endpoint  numeric_result
0  UUUUAACAUGAGGAUCACCCAUGUAAUGAUACCAGAGACGAAAGUCUCCCUUGGCAGCAUAAUCAUUACAUGAGAUGGAAACAUC  apparent Kd             116
1  ACACAUGAGGAUCACCCAUGUUCAAUAGAUACCAGUGAUACGGUGCACCCUUGGCAGCUGUUGCUGAGUGAUGGUUCCCUCGGUA  apparent Kd            65.4
2  UACAGUACAACAGAUACCAGACAGUACUCUAGAUUGCAACAUGAGGAUCACCCAUGUAUAGUCCCUUGGCAGCUGUAAUGGGUGA  apparent Kd             441
3  AUUAAUUGUCGUGAUACCAGACAUACAUGAGGAUCACCCAUGUUAAGUAACAUUUUUUAUGUCCCUUGGCAGCACUUUUUAAUUA  apparent Kd            11.5
4  GGUGGCUGGACUGAUACCAGCCACCACCGAUAGACCACAUGAGGAUCACCCAUGUUGGGUGGCCCUUGGCAGCAGUCUAGCUGCC  apparent Kd            1240

Known value: MS2 coat protein apparent Kd of the sequence `AUGUCGUUGAAUAUAGCGGCUUGGUGUGAUACCAGAAUGAUCUAAUUCCCUUGGCAGCAUUACAUGAGGAUCACCCAUGUUCAGG` equals 23.9

Entry `AAUAACAUGAGGAUCACCCAUGUAAAAGAUACCAGAGUGAUGAUCCUCCCUUGGCAGCUUAACGCUGAUUGAUUACAAUCAGCGA` : apparent Kd on MS2 coat protein = 173
